Numbers sourced from patent US9125413B1.

System: C. elegans nematodes at the L1 stage
experimentNotes: Nematicide efficacy of CED-4 peptides, 96-well incubation of C. elegans L1, viability by probe touch
Type: in vivo, Caenorhabditis elegans
setupConditions: 0.8 mg/ml, three days, about 37° C.
Attribute: Percentage % Dead (mortality rate)
Hi! Could you send only the number? It should be in %, unit omitted.

Here are 5 substances together with their reported answers.
1) H-TSVVLKRMICNALI-OH [Peptide 6] :: 0
2) H-RQMLDRKLLLGNVPKQMTC-OH [Peptide 3] :: 100
3) H-ALLSGKRMPVLTFKI-OH [Peptide 10] :: 33.3
4) H-VDAQTIANGISILEQRL-OH [Peptide 11] :: 30
5) H-LVGVECITPYSYKSLAMALQR-OH [Peptide 9] :: 0

## Task Endpoint output: Percentage % Dead (mortality rate) of H-DVEISNAASQTCEFIEVTSLE-OH [Peptide 7] . Value?
## Result 0

## Task Quick one: Percentage % Dead (mortality rate) for H-MMFFKSCEPKTFEKMAQLNNKLESR-OH [Peptide 8] ?
## Result 0

## Task Consider the substance H-DLLRPVVIAPQFSRQ-OH [Peptide 2] and give its measured Percentage % Dead (mortality rate).
## Result 100

* * *

Test system: C. elegans nematodes at the L1 stage
experimentNotes: Nematicide efficacy of CED-4 peptides, 96-well incubation of C. elegans L1, viability by probe touch
Type: in vivo, Caenorhabditis elegans
setupConditions: 0.4 mg/ml, three days, about 37° C.
resultType: Percentage % Dead (mortality rate) (%)
Your answer should be a plain number; it is taken to be in %.

## Task Quick check: Percentage % Dead (mortality rate) on C. elegans nematodes at the L1 stage, item H-RQMLDRKLLLGNVPKQMTC-OH [Peptide 3] ?
## Result 60

## Task Missing value: Percentage % Dead (mortality rate), C. elegans nematodes at the L1 stage, entry H-QSHLADFLEDYIDFAINE-OH [Peptide 1] . Fill in?
## Result 0

## Task What measured Percentage % Dead (mortality rate) is associated with H-TSVVLKRMICNALI-OH [Peptide 6] on C. elegans nematodes at the L1 stage?
## Result 0

## Task Query for C. elegans nematodes at the L1 stage: what Percentage % Dead (mortality rate) does the record show for H-VDAQTIANGISILEQRL-OH [Peptide 11] ?
## Result 0

## Task Value wanted: Percentage % Dead (mortality rate) (C. elegans nematodes at the L1 stage) of entry H-DVEISNAASQTCEFIEVTSLE-OH [Peptide 7]
## Result 0

## Task Return Percentage % Dead (mortality rate) measured with C. elegans nematodes at the L1 stage given this substance: H-LVGVECITPYSYKSLAMALQR-OH [Peptide 9]
## Result 0

## Task Item: H-DLLRPVVIAPQFSRQ-OH [Peptide 2] Test system: C. elegans nematodes at the L1 stage Read-out: Percentage % Dead (mortality rate) Value: ?
## Result 7.7

## Task Lab note: need Percentage % Dead (mortality rate) with C. elegans nematodes at the L1 stage for entry H-ALLSGKRMPVLTFKI-OH [Peptide 10] , please look it up.
## Result 70

## Task Kindly state the measured Percentage % Dead (mortality rate) obtained for H-MMFFKSCEPKTFEKMAQLNNKLESR-OH [Peptide 8] with C. elegans nematodes at the L1 stage.
## Result 9.09
